Reference for the values: patent US20260193366A1

- assay_system: T1, human IL-4Rα (human, UniProt P24394 26-232)
- T1 construct: also called Hu IL-4Rα; hIL-4Rα
- T1 sequence: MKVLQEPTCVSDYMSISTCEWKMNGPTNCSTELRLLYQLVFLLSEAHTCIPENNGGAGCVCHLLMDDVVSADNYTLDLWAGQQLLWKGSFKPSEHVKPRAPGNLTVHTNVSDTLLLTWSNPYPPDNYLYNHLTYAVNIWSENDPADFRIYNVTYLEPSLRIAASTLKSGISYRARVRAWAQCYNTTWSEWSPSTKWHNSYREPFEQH
- run_description: SPR, Carterra LSA;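 note: antibodies captured on an anti-human Fc sensor chip, antigen injected at several concentrations, association and dissociation rates fitted with a 1:1 Langmuir model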
measured_metric: pKd
Schema: pKd number; meaning minus log10 of the concentration expressed in molar units.

These recorded examples may help you get a feel for the data.
binder	pKd
Construct 20 (mAb428) (antibody, IgG4, V domains shown, VH/VL only) VH: EVQLVESGGGLEQPGGSLRLSCAGSGFTFRDFAMTWVRQAPGKGLEWVSSISGSGDNTYYADSVKGRFTISRDNSKNTLYLQMNSLRAEDTAVYYCAKDRLSITVRPRYYGLDVWGQGTTVTVSS VL: DIVMTQSPLSLPVTPGEPASISCTSSQSLLYSIGYNYVDWYLQKSGQSPQLLIYLGNKRASGVPDRFSGSGSGTDFTLKISRVEAEDVGFYYCMQSLQTPYVFGQGTKLEIK	10.80
Construct 24 (mAb432) (antibody, IgG4, V domains shown, VH/VL only) VH: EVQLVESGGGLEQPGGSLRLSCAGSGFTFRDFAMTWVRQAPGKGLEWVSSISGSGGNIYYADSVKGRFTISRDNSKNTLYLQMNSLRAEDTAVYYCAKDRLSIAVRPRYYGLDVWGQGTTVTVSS VL: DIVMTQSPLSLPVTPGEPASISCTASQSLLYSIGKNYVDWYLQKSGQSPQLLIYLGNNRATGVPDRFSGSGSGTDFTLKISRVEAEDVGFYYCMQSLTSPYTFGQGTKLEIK	11.05

Could you now look at the following binder, please?
Request: Return reported pKd; argument: Construct 3 (mAb412) (antibody, IgG4, V domains shown, VH/VL only) VH: EVQLVESGGGLEQPGGSLRLSCAGSGFTFRDFAMTWVRQAPGKGLEWVSSISGSGSSTYYADSVKGRFTISRDNSKNTLYLQMNSLRAEDTAVYYCAKDRLSITVRPRYYGLDVWGQGTTVTVSS VL: DIVMTQSPLSLPVTPGEPASISCRSSQSLLYSIGYNYVDWYLQKSGQSPQLLIYLGNKRASGVPDRFSGSGSGTDFTLKISRVEAEDVGFYYCMQALTTPYTFGQGTKLEIK
Result: 11.07
